Tested on: NCI-H23 lung
Assay: NCI tumour cell line growth inhibition, 48 h
Where a SMILES comes first, the peptide text is derived from it. [ ]: non-standard residue; d: D form. The star is where a group is joined. Ac5c = NC1(C(=O)O)CCCC1; Cbz = O=C(OCc1ccccc1)*; Boc = CC(C)(C)OC(=O)*; tBu = CC(C)(C)*
# TGI annotations
Reported Metric: TGI

[
  {
    "Compound": "COc1ccc(C(=O)Nc2ccccc2C#N)cc1",
    "Reported Metric": "TGI",
    "Obs Value": "> 100 µM"
  },
  {
    "Compound": "Cc1ccc(C)c(NC(=O)CCC(=O)CC(=O)C(C)(C)C)c1",
    "Reported Metric": "TGI",
    "Obs Value": "> 100 µM"
  },
  {
    "Compound": "Clc1ccc(C2=NN(c3ccccc3)C3c4cc(Br)ccc4OCC23)cc1 (stereo not drawn)",
    "Reported Metric": "TGI",
    "Obs Value": "> 100 µM"
  },
  {
    "Compound": "CCCCCNC(=O)C1C(=O)N(CCCCC)C(=O)/C1=N\\N (stereo not drawn)",
    "Reported Metric": "TGI",
    "Obs Value": "> 100 µM"
  },
  {
    "Compound": "CC1OC(OC2C(OC3CCC4(C)C(CCC5(C)C4CC=C4C6CC(C)(C)CCC6(CO)C(O)CC45C)C3(C)C)OC(C(=O)O)C(OC3OC(COC4OC(CO)C(O)C(O)C4O)C(O)C(O)C3O)C2O)C(O)C(O)C1O (stereo not drawn)",
    "Reported Metric": "TGI",
    "Obs Value": "4.67 µM"
  },
  {
    "Compound": "CCN1CCC(O)(c2ccccc2)C(C(=O)c2ccccc2)C1 (stereo not drawn)",
    "Reported Metric": "TGI",
    "Obs Value": "97.5 µM"
  },
  {
    "Compound": "O=C(Nc1ccc(-n2cc(-c3ccncc3)c(-c3ccc(O)c(Cl)c3)n2)cc1)c1ccc(Cl)c(Cl)c1",
    "Reported Metric": "TGI",
    "Obs Value": "> 32.5 µM"
  },
  {
    "Compound": "[N-]=[N+]=NC1=C(N=[N+]=[N-])c2cccc3cccc(c23)C1=O",
    "Reported Metric": "TGI",
    "Obs Value": "> 100 µM"
  },
  {
    "Compound": "O=c1[nH]nc(Cc2ccc(Cl)cc2)n1Nc1ccccc1",
    "Reported Metric": "TGI",
    "Obs Value": "> 100 µM"
  },
  {
    "Compound": "CCOC(=O)/C(=C/c1c(-c2ccccc2)[nH]c2ccccc12)C(=O)c1ccc(Cl)cc1",
    "Reported Metric": "TGI",
    "Obs Value": "> 100 µM"
  },
  {
    "Compound": "CC(=O)NNc1nc(C)c(C(/C=C/c2ccc3c(c2)OCO3)=N/NC(=O)c2ccncc2)s1",
    "Reported Metric": "TGI",
    "Obs Value": "> 100 µM"
  },
  {
    "Compound": "Cc1cc(N(CCC#N)CCC#N)ccc1N=Nc1ccc([N+](=O)[O-])cc1",
    "Reported Metric": "TGI",
    "Obs Value": "> 100 µM"
  },
  {
    "Compound": "COc1ccc(N=C/C=C/C(=C/COC(C)=O)OC(C)=O)cc1",
    "Reported Metric": "TGI",
    "Obs Value": "91.7 µM"
  },
  {
    "Compound": "COC(=O)C1(c2ccc(OC)cc2)NC(c2ccccc2)C2C(=O)N(c3ccc(OC)cc3)C(=O)C21 (stereo not drawn)",
    "Reported Metric": "TGI",
    "Obs Value": "> 100 µM"
  },
  {
    "Compound": "CCOc1ccc(NC(=O)/C(=C/c2ccccc2)C(C)=O)cc1",
    "Reported Metric": "TGI",
    "Obs Value": "24.8 µM"
  },
  {
    "Compound": "COC(=O)Oc1nn(C(=O)OC)c(=O)c2ccccc12 (tested in a mixture with another compound)",
    "Reported Metric": "TGI",
    "Obs Value": "> 100 µM"
  },
  {
    "Compound": "CC(C)c1cccc(C(C)C)c1NC(=S)Nc1ccccc1",
    "Reported Metric": "TGI",
    "Obs Value": "> 100 µM"
  },
  {
    "Compound": "CC1=C(C(=O)Nc2cc(F)c(F)cc2F)C(c2cccc([N+](=O)[O-])c2)C(C(=O)Nc2ccccc2C(F)(F)F)=C(C)N1 (stereo not drawn)",
    "Reported Metric": "TGI",
    "Obs Value": "46.5 µM"
  },
  {
    "Compound": "N/C(=N/O)c1cn(C2OC(CO)C(O)C2O)c2ncnc(NO)c12 (stereo not drawn)",
    "Reported Metric": "TGI",
    "Obs Value": "2.29 µM"
  },
  {
    "Compound": "Cc1ccc2c(c1)C(=O)c1ccc(C)nc1C2=O",
    "Reported Metric": "TGI",
    "Obs Value": "58.9 µM"
  },
  {
    "Compound": "COC(=O)C1(NC(=O)C(Cc2ccccc2)NC(=O)C(NC(=O)C(CCCCNC(=O)OC(C)(C)C)NC(=O)C(Cc2c[nH]c3ccccc23)NC(=O)C(Cc2ccccc2)NC(=O)OCc2ccccc2)C(C)OC(C)(C)C)CCCC1 (stereo not drawn) (Cbz-FWK(Boc)T(tBu)F[Ac5c]-OMe; configuration not given here)",
    "Reported Metric": "TGI",
    "Obs Value": "> 100 µM"
  },
  {
    "Compound": "O=C1c2cc([N+](=O)[O-])cnc2S(=O)(=O)N1c1ccc(Oc2ccccc2)cc1",
    "Reported Metric": "TGI",
    "Obs Value": "> 100 µM"
  },
  {
    "Compound": "CC(OC(C)(C)C)C(NC(=O)C(CCCCNC(=O)OC(C)(C)C)NC(=O)C(Cc1c[nH]c2ccccc12)NC(=O)C(N)Cc1ccccc1)C(=O)NC(Cc1ccccc1)C(=O)NC1(C(=O)O)CCCC1 (stereo not drawn) (H-FWK(Boc)T(tBu)F[Ac5c]-OH; configuration not given here)",
    "Reported Metric": "TGI",
    "Obs Value": "> 100 µM"
  },
  {
    "Compound": "COC(=O)c1c(OC(C)=O)ccc2c1c1c(n2Cc2ccccc2)C(=O)c2ccccc2C1=O",
    "Reported Metric": "TGI",
    "Obs Value": "42.1 µM"
  },
  {
    "Compound": "O=C(O)C1CCCCN1CCc1c[nH]c2ccccc12 (stereo not drawn)",
    "Reported Metric": "TGI",
    "Obs Value": "> 100 µM"
  },
  {
    "Compound": "COC(=O)[C@@H](COC(=O)/C=C/c1ccc(OC(C)=O)c(OC(C)=O)c1)NC(=O)/C=C/c1ccc(OC(C)=O)c(OC(C)=O)c1",
    "Reported Metric": "TGI",
    "Obs Value": "> 100 µM"
  },
  {
    "Compound": "COc1ccc(-c2c(C(=O)Nc3ccccc3)c(-c3ccccc3)n(C3OC(CO)C(O)C(O)C3O)c(=S)c2C#N)cc1 (stereo not drawn)",
    "Reported Metric": "TGI",
    "Obs Value": "> 100 µM"
  },
  {
    "Compound": "COc1ccc(C(c2ccccc2)N2C(=O)CCC2C(=O)O)cc1OC (stereo not drawn)",
    "Reported Metric": "TGI",
    "Obs Value": "> 100 µM"
  }
]
